Source of measurements: ChEMBL document CHEMBL1124947

- Tested on: Mus musculus
- Test description: Trypanocidal Activity at I.C.E. value 0.45 when administered subcutaneously.
- Type: functional
Would you kindly list CD50 for each of these compounds?
Answers are plain numbers, in mg/kg.

For the 4 compounds below, give their CD50 values.
1. C[n+]1cccc(COc2ccc(/C=N/NC(=N)N)cc2)c1.Cc1ccc(S(=O)(=O)O)cc1.Cc1ccc(S(=O)(=O)[O-])cc1
2. Br.C[n+]1cccc(COc2ccc(/C=N/NC3=NCCCN3)cc2)c1.[Br-]
3. Br.Cc1c(-c2ccc(/C=N/NC(=N)N)cc2)[n+](C)c2ccccn12.[Br-]
4. Br.C/N=C(\NC)N/N=C/c1ccc(OCc2cn3ccccc3[n+]2C)cc1.[Br-]

Response:
[0.8, 0.8, 0.2, 0.8]
